Molecular target: human TAS1R2-I234V/TAS1R3-WT (Homo sapiens, UniProt Q7RTX0+Q8TE23, I234V)
Construct: expressed in transfected cells; host or cells: HEK293T-Gα16gust44
Sequence (Q8TE23 20-839 I234V): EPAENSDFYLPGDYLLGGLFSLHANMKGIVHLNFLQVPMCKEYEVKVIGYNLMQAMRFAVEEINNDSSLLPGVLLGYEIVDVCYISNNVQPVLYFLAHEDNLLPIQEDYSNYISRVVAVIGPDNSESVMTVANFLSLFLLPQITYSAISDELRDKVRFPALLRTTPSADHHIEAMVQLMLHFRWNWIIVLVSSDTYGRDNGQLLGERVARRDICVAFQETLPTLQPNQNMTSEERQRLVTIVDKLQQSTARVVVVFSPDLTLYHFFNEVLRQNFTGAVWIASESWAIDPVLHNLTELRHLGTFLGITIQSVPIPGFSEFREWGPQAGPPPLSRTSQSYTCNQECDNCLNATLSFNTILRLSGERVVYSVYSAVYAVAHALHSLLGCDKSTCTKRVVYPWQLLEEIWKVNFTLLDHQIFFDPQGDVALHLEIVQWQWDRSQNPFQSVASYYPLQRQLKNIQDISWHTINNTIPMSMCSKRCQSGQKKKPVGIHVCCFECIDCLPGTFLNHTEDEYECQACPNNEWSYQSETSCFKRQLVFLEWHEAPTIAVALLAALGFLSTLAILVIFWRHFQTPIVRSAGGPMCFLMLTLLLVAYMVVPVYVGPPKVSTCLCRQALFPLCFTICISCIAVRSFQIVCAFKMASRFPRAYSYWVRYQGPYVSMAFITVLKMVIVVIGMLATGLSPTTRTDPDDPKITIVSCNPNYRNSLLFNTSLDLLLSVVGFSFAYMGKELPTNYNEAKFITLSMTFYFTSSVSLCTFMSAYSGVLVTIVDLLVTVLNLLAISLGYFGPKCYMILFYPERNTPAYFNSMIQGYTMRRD
Sequence (Q7RTX0 21-852): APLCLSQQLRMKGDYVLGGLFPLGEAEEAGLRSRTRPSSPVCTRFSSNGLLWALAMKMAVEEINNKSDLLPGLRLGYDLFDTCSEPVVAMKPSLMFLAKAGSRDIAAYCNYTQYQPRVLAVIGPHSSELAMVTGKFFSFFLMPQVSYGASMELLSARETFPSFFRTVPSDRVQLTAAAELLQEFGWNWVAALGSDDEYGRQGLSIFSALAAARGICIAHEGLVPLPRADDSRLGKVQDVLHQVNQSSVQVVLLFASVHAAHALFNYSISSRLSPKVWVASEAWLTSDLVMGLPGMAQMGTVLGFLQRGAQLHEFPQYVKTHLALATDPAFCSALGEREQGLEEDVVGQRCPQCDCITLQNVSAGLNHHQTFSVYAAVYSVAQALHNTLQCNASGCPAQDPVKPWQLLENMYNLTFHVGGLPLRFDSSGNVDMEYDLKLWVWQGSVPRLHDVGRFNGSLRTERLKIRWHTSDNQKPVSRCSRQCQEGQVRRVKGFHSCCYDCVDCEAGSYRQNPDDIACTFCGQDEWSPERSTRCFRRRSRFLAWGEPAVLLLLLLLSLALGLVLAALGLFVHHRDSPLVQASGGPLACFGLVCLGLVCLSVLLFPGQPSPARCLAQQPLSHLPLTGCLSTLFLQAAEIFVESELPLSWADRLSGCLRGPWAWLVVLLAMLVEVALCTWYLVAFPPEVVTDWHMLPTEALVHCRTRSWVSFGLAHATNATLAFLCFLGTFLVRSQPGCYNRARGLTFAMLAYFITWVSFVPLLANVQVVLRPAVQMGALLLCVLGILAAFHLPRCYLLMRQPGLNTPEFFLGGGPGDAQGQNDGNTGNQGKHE
Experiment: Calcium mobilisation assay, TAS1R2 variant I234V with TAS1R3-WT
Format: cell-based

Molecule | R1 = Variant EC50/WT EC50
C=C(C)[C@@H]1CC=C(/C=N/O)CC1 [Perillartine, perillartine] | 1.1
